Hey, just so you know, these numbers are from patent US5386011A.

Molecular target: C5a Receptor (Homo sapiens, UniProt P21730)
Construct: 2.5-25 ug/mL of purified PMNL membrane fragments; endogenous in cells
Sequence (P21730 1-350): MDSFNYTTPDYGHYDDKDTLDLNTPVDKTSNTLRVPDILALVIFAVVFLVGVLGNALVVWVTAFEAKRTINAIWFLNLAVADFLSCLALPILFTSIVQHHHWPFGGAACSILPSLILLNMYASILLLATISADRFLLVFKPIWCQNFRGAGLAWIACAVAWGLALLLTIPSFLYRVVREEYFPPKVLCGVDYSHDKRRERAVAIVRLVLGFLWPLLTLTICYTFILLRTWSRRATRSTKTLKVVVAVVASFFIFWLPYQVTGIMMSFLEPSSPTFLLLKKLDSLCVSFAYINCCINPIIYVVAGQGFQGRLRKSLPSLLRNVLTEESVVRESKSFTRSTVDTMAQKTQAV
Assay: Anaphylatoxin receptor binding Ki determination: inhibition of 125I-C5a binding to purified PMNL membrane fragments
Details: 0.03-1 nM 125I-C5a, 2.5-25 ug/mL purified PMNL membrane fragments, filtration; read-out: Ki (In vitro C5a Receptor Binding Potency)
Where a SMILES comes first, the peptide text is derived from it. [ ]: non-standard residue; d: D form. NMeF = CN[C@@H](Cc1ccccc1)C(=O)O; Cha = N[C@@H](CC1CCCCC1)C(=O)O; dCha = N[C@H](CC1CCCCC1)C(=O)O
Items are presented alongside their recorded Ki.
Give just the numeric value; nM need not be written.

Completed entries (count: 2):
molecule	Ki [nM]
CN[C@@H](Cc1ccccc1)C(=O)N[C@@H](CCCCN)C(=O)N1CCC[C@H]1C(=O)N[C@H](CC1CCCCC1)C(=O)N[C@@H](Cc1ccccc1)C(=O)N[C@H](Cc1ccccc1)C(=O)O [Example 212] (H-[NMeF]KP[dCha]F[dF]-OH)	110
CC(C)C[C@H](NC(=O)[C@H](CC1CCCCC1)NC(=O)[C@H](CC1CCCCC1)NC(=O)[C@H](C)NC(=O)[C@H](CCCCN)NC(=O)[C@@H](N)Cc1ccccc1)C(=O)N[C@H](CCCNC(=N)N)C(=O)O [Example 214] (H-FKA[Cha][Cha]L[dR]-OH)	90

In the following, a different molecule is considered.
Recorded Ki for CC(=O)N[C@@H](Cc1ccccc1)C(=O)N[C@@H](CCCCN)C(=O)N[C@@H](C)C(=O)N[C@H](CC1CCCCC1)C(=O)N[C@@H](CC1CCCCC1)C(=O)N[C@H](CCCNC(=N)N)C(=O)O [Example 120] (Ac-FKA[dCha][Cha][dR]-OH) , please?
110
